# Tested System: MAX:MAX (p21) (human, UniProt P61244-2 1-151)
# Sequence (P61244 other isoform, or with tags, fused parts or gaps): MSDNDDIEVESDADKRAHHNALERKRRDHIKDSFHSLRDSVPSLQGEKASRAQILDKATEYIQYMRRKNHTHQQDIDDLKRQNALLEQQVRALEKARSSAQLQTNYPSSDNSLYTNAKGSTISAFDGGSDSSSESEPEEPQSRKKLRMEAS
# Assay Method Text: protein-binding microarray (anti-MAX antibody); PBM: 15 mM Tris-HCl pH 7.5, 100 mM KCl, 0.075% NP40, 7.5 mM beta-mercaptoethanol, 375 ng/ul BSA, 8 ng/ul poly(dA-dT):(dA-dT), 550 ng complex, 60 min, room tempe; high values mean tight binding
# Assay Setup: protein: recombinant; tags: 6xHis; chain copies: 2; label: 3' end of printed strand (linker) attached to glass slide; dsDNA, one strand shown
Over roughly 4,500 sequences, “log2 normalized fluorescence” has its median near -0.34; the highest 2% begin near 3.3. Shown is part of a subset that was picked to be rich in the highest values.
Measured Quantity: binding signal

Guide cases for binding signal, answers given:
CCGGCTGAGTGGCTGTATTAATAGCTAAGATTACTATATCGACG
0.1 log2 normalized fluorescence
CCGGCCGACACGTGCTTTTAATAGCTAAGATTACTATATCGACG
3.21 log2 normalized fluorescence
CCGGCTGAGTCGAGGTATTAATAGCTAAGATTACTATATCGACG
-0.576 log2 normalized fluorescence

query: GET binding signal where system = MAX:MAX (p21) (human, UniProt P61244-2 1-151) and item = CCGGCTCACACGCGGTTTTAATAGCTAAGATTACTATATCGACG
result: 3.17 log2 normalized fluorescence

query: GET binding signal where system = MAX:MAX (p21) (human, UniProt P61244-2 1-151) and item = CCGGCTGACACGTTTAATTAATAGCTAAGATTACTATATCGACG
result: 2.59 log2 normalized fluorescence

query: GET binding signal where system = MAX:MAX (p21) (human, UniProt P61244-2 1-151) and item = CCGGCTGACACGTGCCCTTAATAGCTAAGATTACTATATCGACG
result: 3.16 log2 normalized fluorescence

* * *

# Tested System: MAX:MAX (p21) (human, UniProt P61244-2 1-151)
# Assay Method Text: protein-binding microarray (anti-MAX antibody); PBM: 15 mM Tris-HCl pH 7.5, 100 mM KCl, 0.075% NP40, 7.5 mM beta-mercaptoethanol, 375 ng/ul BSA, 8 ng/ul poly(dA-dT):(dA-dT), 550 ng complex, 60 min, room tempe; high values mean tight binding
# Assay Setup: protein: recombinant; tags: 6xHis; chain copies: 2; label: 3' end of printed strand (linker) attached to glass slide; dsDNA, one strand shown
The full ranking holds about 4,500 sequences; the median of “log2 normalized fluorescence” is about -0.34, and the highest 2% start at about 3.3. For the sample, the highest values were picked, then their nearest neighbours and some sequences at random.
Measured Quantity: binding signal

query: Please give measured binding signal of the following entry: CCGGCTGACAGAACGTATTAATAGCTAAGATTACTATATCGACG
result: -0.288 log2 normalized fluorescence

query: Please give measured binding signal of the following entry: CCGGCTGACACGTGTAGTTAATAGCTAAGATTACTATATCGACG
result: 3.17 log2 normalized fluorescence

query: Please give measured binding signal of the following entry: CCGGCTGAACGCTGGTATTAATAGCTAAGATTACTATATCGACG
result: 0.233 log2 normalized fluorescence

query: Please give measured binding signal of the following entry: CCGGCTGACACGTGTGGTTAATAGCTAAGATTACTATATCGACG
result: 3.39 log2 normalized fluorescence

query: Please give measured binding signal of the following entry: CCGGCTGACACGTTGTCTTAATAGCTAAGATTACTATATCGACG
result: 3.12 log2 normalized fluorescence

query: Please give measured binding signal of the following entry: CCGGCTGAACAAAGGTATTAATAGCTAAGATTACTATATCGACG
result: -0.6 log2 normalized fluorescence

query: Please give measured binding signal of the following entry: CCGGCTGACTAATGGTATTAATAGCTAAGATTACTATATCGACG
result: -0.355 log2 normalized fluorescence

query: Please give measured binding signal of the following entry: CCGGCTGACACGGGTTTTTAATAGCTAAGATTACTATATCGACG
result: 2.09 log2 normalized fluorescence

query: Please give measured binding signal of the following entry: CCGGCTGATTCACGGTATTAATAGCTAAGATTACTATATCGACG
result: 0.000807 log2 normalized fluorescence

query: Please give measured binding signal of the following entry: CCGGCTGAGTGGATGTATTAATAGCTAAGATTACTATATCGACG
result: 0.0423 log2 normalized fluorescence

* * *

binding signal: recorded values
# Tested System: MAX:MAX (p21) (human, UniProt P61244-2 1-151)
# Assay Method Text: protein-binding microarray (anti-MAX antibody); PBM: 15 mM Tris-HCl pH 7.5, 100 mM KCl, 0.075% NP40, 7.5 mM beta-mercaptoethanol, 375 ng/ul BSA, 8 ng/ul poly(dA-dT):(dA-dT), 550 ng complex, 60 min, room tempe; high values mean tight binding
# Assay Setup: protein: recombinant; tags: 6xHis; chain copies: 2; label: 3' end of printed strand (linker) attached to glass slide; dsDNA, one strand shown
Whole data set: some 4,500 sequences, median “log2 normalized fluorescence” near -0.34, cut for the highest 2% near 3.3. Only a selection was taken, and the highest values are over-represented in it overall.

CCGGCGAACACGTGGTATTAATAGCTAAGATTACTATATCGACG
3.34 log2 normalized fluorescence
CCGGCAGACACGTGATATTAATAGCTAAGATTACTATATCGACG
3.29 log2 normalized fluorescence
CCGGCTTACACATGCTATTAATAGCTAAGATTACTATATCGACG
3.23 log2 normalized fluorescence
CCGGCTGATAGTGGGTATTAATAGCTAAGATTACTATATCGACG
-0.372 log2 normalized fluorescence
CCGGCGGACACGTGCTATTAATAGCTAAGATTACTATATCGACG
3.15 log2 normalized fluorescence
CCGGCGGACGCGTGGTATTAATAGCTAAGATTACTATATCGACG
3.14 log2 normalized fluorescence
CCGGCAGACATGTGGTGTTAATAGCTAAGATTACTATATCGACG
3.1 log2 normalized fluorescence
CCGGCTAGCACGTGGTATTAATAGCTAAGATTACTATATCGACG
3.44 log2 normalized fluorescence

query: Please give measured binding signal of the following entry: CCGGCACACACGTGGTATTAATAGCTAAGATTACTATATCGACG
result: 3.32 log2 normalized fluorescence

query: Please give measured binding signal of the following entry: CCGGCTGATACATAGTATTAATAGCTAAGATTACTATATCGACG
result: -0.533 log2 normalized fluorescence

query: Please give measured binding signal of the following entry: CCGGCTGACGGCCCGTATTAATAGCTAAGATTACTATATCGACG
result: -0.704 log2 normalized fluorescence

query: Please give measured binding signal of the following entry: CCGGCCGTCACGTGGTATTAATAGCTAAGATTACTATATCGACG
result: 3.18 log2 normalized fluorescence

query: Please give measured binding signal of the following entry: CCGGCTGACTCACTGTATTAATAGCTAAGATTACTATATCGACG
result: -0.209 log2 normalized fluorescence

* * *

binding signal: recorded values
# Tested System: MAX:MAX (p21) (human, UniProt P61244-2 1-151)
# Assay Method Text: protein-binding microarray (anti-MAX antibody); PBM: 15 mM Tris-HCl pH 7.5, 100 mM KCl, 0.075% NP40, 7.5 mM beta-mercaptoethanol, 375 ng/ul BSA, 8 ng/ul poly(dA-dT):(dA-dT), 550 ng complex, 60 min, room tempe; high values mean tight binding
# Assay Setup: protein: recombinant; tags: 6xHis; chain copies: 2; label: 3' end of printed strand (linker) attached to glass slide; dsDNA, one strand shown
In all, about 4,500 sequences were measured (“log2 normalized fluorescence”: median about -0.34, highest 2% from about 3.3 on). The sample holds the highest values, similar sequences and a random draw of the others, so the mix is not that of the screen.

CCGGCTGACACGTGAGCTTAATAGCTAAGATTACTATATCGACG
3.09 log2 normalized fluorescence
CCGGCTGACAAATCGTATTAATAGCTAAGATTACTATATCGACG
-0.658 log2 normalized fluorescence
CCGGCAAACACGTAGTATTAATAGCTAAGATTACTATATCGACG
2.6 log2 normalized fluorescence
CCGGCTGATGAACAGTATTAATAGCTAAGATTACTATATCGACG
-0.468 log2 normalized fluorescence
CCGGCTGACACGTGATGTTAATAGCTAAGATTACTATATCGACG
3.13 log2 normalized fluorescence

query: Please give measured binding signal of the following entry: CCGGCTGACACGTGAGGTTAATAGCTAAGATTACTATATCGACG
result: 3.37 log2 normalized fluorescence

query: Please give measured binding signal of the following entry: CCGGCTGACATGTGGCCTTAATAGCTAAGATTACTATATCGACG
result: 2.99 log2 normalized fluorescence

query: Please give measured binding signal of the following entry: CCGGCTGACACGTGAGATTAATAGCTAAGATTACTATATCGACG
result: 3.29 log2 normalized fluorescence

query: Please give measured binding signal of the following entry: CCGGCTGAGACGTGGGATTAATAGCTAAGATTACTATATCGACG
result: 0.979 log2 normalized fluorescence

query: Please give measured binding signal of the following entry: CCGGCTGACACGTGACGTTAATAGCTAAGATTACTATATCGACG
result: 3.23 log2 normalized fluorescence

query: Please give measured binding signal of the following entry: CCGGCTCACACGTCGTATTAATAGCTAAGATTACTATATCGACG
result: 2.63 log2 normalized fluorescence
